# Test system: 186277-243-T-J2-PDC complex spheroid viability
# Assay notes: Anticancer human tumor 186277-243-T-J2-PDC patient-derived colon adenocarcinoma cell line growth inhibition [GQUAD]
# Condition notes: second compound 3.16 µM; first compound 0.00316 µM; stronger effect = lower value
# Excerpt: DNA G-quadruplex Stabilizer Agents in Combinations in Complex Spheroids A high-throughput screen of multi-cell type tumor spheroids was designed to identify active combinations of DNA G-quadruplex stabilizer agents and targeted small molecules. […] Compounds. […] If the clinical Cmax for an agent had not been determined, the highest concentration tested was 10 microM. […]
Param label: returns T when viability, T/C < 90%, returns F otherwise, including exact equality.

Take a look at these entries with their results.
INSERT INTO results (compound, classification) VALUES
  ('Cc1[nH]c2ccccc2c1CCNCc1ccc(/C=C/C(=O)NO)cc1 + Cc1[nH]c2ccc(F)cc2c1-c1nc2c3cccnc3c3ncccc3c2[nH]1', 'F'),
  ('Cn1ncnc1[C@H]1c2n[nH]c(=O)c3cc(F)cc(c23)N[C@@H]1c1ccc(F)cc1 + Cc1[nH]c2ccc(F)cc2c1-c1nc2c3cccnc3c3ncccc3c2[nH]1', 'F');

Asked: Consider the compound Cc1[nH]c2ccccc2c1CCNCc1ccc(/C=C/C(=O)NO)cc1 + CN(C)c1ccc(Nc2c3ccc(NC(=O)CCN4CCCC4)cc3nc3cc(NC(=O)CCN4CCCC4)ccc23)cc1 . Is its viability, T/C strictly less than 90%?
Given back: F

Asked: Say whether its viability, T/C is strictly beneath 90%. Entry: Cn1ncnc1[C@H]1c2n[nH]c(=O)c3cc(F)cc(c23)N[C@@H]1c1ccc(F)cc1 + Cc1cnc(CNC(=O)c2c(=O)c3ccc(N4CCCN(C)CC4)nc3n3c2sc2ccccc23)cn1
Given back: T

Asked: Strictly below 90%: is that where viability, T/C of Cn1ncnc1[C@H]1c2n[nH]c(=O)c3cc(F)cc(c23)N[C@@H]1c1ccc(F)cc1 + CN(C)c1ccc(Nc2c3ccc(NC(=O)CCN4CCCC4)cc3nc3cc(NC(=O)CCN4CCCC4)ccc23)cc1 sits?
Given back: F

Asked: Report whether reported viability, T/C is lower than 90% (strictly) for CC[C@@]1(O)C(=O)OCc2c1cc1n(c2=O)Cc2cc3c(CN(C)C)c(O)ccc3nc2-1 + CN(C)c1ccc(Nc2c3ccc(NC(=O)CCN4CCCC4)cc3nc3cc(NC(=O)CCN4CCCC4)ccc23)cc1
Given back: F

Asked: I wonder whether CC[C@@]1(O)C(=O)OCc2c1cc1n(c2=O)Cc2cc3c(CN(C)C)c(O)ccc3nc2-1 + Cc1cnc(CNC(=O)c2c(=O)c3ccc(N4CCCN(C)CC4)nc3n3c2sc2ccccc23)cn1 has viability, T/C below 90%. Can you tell?
Given back: T

Asked: Given CCc1c2c(nc3ccc(O)cc13)-c1cc3c(c(=O)n1C2)COC(=O)[C@]3(O)CC + CN(C)c1ccc(Nc2c3ccc(NC(=O)CCN4CCCC4)cc3nc3cc(NC(=O)CCN4CCCC4)ccc23)cc1 , is recorded viability, T/C strictly lower than 90%?
Given back: T

----------
# Test system: 186277-243-T-J2-PDC complex spheroid viability
# Assay notes: Anticancer human tumor 186277-243-T-J2-PDC cell line growth inhibition [GQUAD]; active means viability on the fitted dose curve at most 10% of control; inactive means the rest;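 also: spheroids exposed to drugs for 7 days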
# Condition notes: second compound 0.316 µM; first compound 1 µM
Your response should consist of one outcome taken from active, inactive

Known results for molecules:
INSERT INTO results (molecule, classification) VALUES
  ('CC1COCCN1c1cc(C2(O)CC3CCC(C2)O3)c2cnn(-c3ccn[nH]3)c2n1 (stereo unspecified) + Cc1cnc(CNC(=O)c2c(=O)c3ccc(N4CCCN(C)CC4)nc3n3c2sc2ccccc23)cn1', 'active'),
  ('COc1cccc2c1C(=O)c1c(O)c3c(c(O)c1C2=O)CC(O)(C(=O)CO)CC3OC1CC(N)C(O)C(C)O1 (stereo unspecified) + Cc1cnc(CNC(=O)c2c(=O)c3ccc(N4CCCN(C)CC4)nc3n3c2sc2ccccc23)cn1', 'inactive');

Asked: Status in this test for CC1COCCN1c1cc(C2(S(C)(=N)=O)CC2)nc(-c2ccnc3[nH]ccc23)n1 (stereo unspecified) + Cc1[nH]c2ccc(F)cc2c1-c1nc2c3cccnc3c3ncccc3c2[nH]1 ?
Given back: inactive

Asked: Outcome? O=C(c1cc(Cc2n[nH]c(=O)c3ccccc23)ccc1F)N1CCN(C(=O)C2CC2)CC1 + Cc1cnc(CNC(=O)c2c(=O)c3ccc(N4CCCN(C)CC4)nc3n3c2sc2ccccc23)cn1
Given back: inactive

Asked: What call does the record list for COc1cccc2c1C(=O)c1c(O)c3c(c(O)c1C2=O)CC(O)(C(=O)CO)CC3OC1CC(N)C(O)C(C)O1 (stereo unspecified) + CN(C)c1ccc(Nc2c3ccc(NC(=O)CCN4CCCC4)cc3nc3cc(NC(=O)CCN4CCCC4)ccc23)cc1 ?
Given back: inactive

Asked: I'd appreciate the recorded outcome for C=CCn1c(=O)c2cnc(Nc3ccc(N4CCN(C)CC4)cc3)nc2n1-c1cccc(C(C)(C)O)n1 + Cc1[nH]c2ccc(F)cc2c1-c1nc2c3cccnc3c3ncccc3c2[nH]1 from this test.
Given back: active

Asked: Hi, do you know how COc1cccc2c1C(=O)c1c(O)c3c(c(O)c1C2=O)CC(O)(C(=O)CO)CC3OC1CC(N)C(O)C(C)O1 (stereo unspecified) + Cc1[nH]c2ccc(F)cc2c1-c1nc2c3cccnc3c3ncccc3c2[nH]1 came out in this test?
Given back: inactive

Asked: Entry O=c1[nH]cc(F)c(=O)[nH]1 + CN(C)c1ccc(Nc2c3ccc(NC(=O)CCN4CCCC4)cc3nc3cc(NC(=O)CCN4CCCC4)ccc23)cc1 : call = ?
Given back: inactive

Asked: What call does the record list for CC(C)n1c(=O)n(C)c2cnc3cc(F)c(-c4ccc(OCCCN5CCCCC5)nc4)cc3c21 + Cc1cnc(CNC(=O)c2c(=O)c3ccc(N4CCCN(C)CC4)nc3n3c2sc2ccccc23)cn1 ?
Given back: inactive

Asked: Please share the test call associated with O=C(NO)c1cnc(N2CCN(S(=O)(=O)c3ccc4ccccc4c3)CC2)nc1 + Cc1cnc(CNC(=O)c2c(=O)c3ccc(N4CCCN(C)CC4)nc3n3c2sc2ccccc23)cn1 .
Given back: active

Asked: Recorded test outcome, item COc1cc(C2c3cc4c(cc3C(OC3OC5COC(C)OC5C(O)C3O)C3COC(=O)C23)OCO4)cc(OC)c1O (stereo unspecified) + Cc1cnc(CNC(=O)c2c(=O)c3ccc(N4CCCN(C)CC4)nc3n3c2sc2ccccc23)cn1
Given back: inactive

FYI, the data here is from PubChem BioAssay AID2060512.
